# assayed-target: Pseudomonas aeruginosa LpxC enzyme (Pseudomonas aeruginosa (strain ATCC 15692 / DSM 22644 / CIP 104116 / JCM 14847 / LMG 12228 / 1C / PRS 101 / PAO1))
# protocol-notes: IC50 Assay, LpxC Enzyme from P. aeruginosa (PA LpxC Enzyme IC50)
# Type: biochemical
# cond: P. aeruginosa LpxC enzyme; read-out: PA LpxC enzyeme IC50
molecules and their reported IC50
// return numeric value only (unit: nM, not printed)

>>> result_number("CC(CCc1ccc(-c2ccccc2Cl)cc1)(C(=O)NO)S(C)(=O)=O (stereo not drawn) [Example 81]")
0.448
>>> result_number("CC(CCc1ccc(-c2ccc(C(=O)CO)cc2)cc1F)(C(=O)NO)S(C)(=O)=O (stereo not drawn) [Example 183]")
0.387
>>> result_number("Cc1cc(-c2ccc(C#N)cc2)ccc1CCC(C)(C(=O)NO)S(C)(=O)=O (stereo not drawn) [Example 161]")
0.725

Which value of IC50 has been reported for Cc1cc(C#N)ccc1-c1ccc(CCC(C)(C(=O)NO)S(C)(=O)=O)cc1 (stereo not drawn) [Example 91] in the records?
0.266

For the molecule Cc1cc(-c2ccc(CCC(C)(C(=O)NO)S(C)(=O)=O)cc2)ccc1C#N (stereo not drawn) [Example 109] , what IC50 is on record?
0.144

Entry CC(=O)Nc1ccc(-c2ccc(CCC(C)(C(=O)NO)S(C)(=O)=O)cc2F)cc1 (stereo not drawn) [Example 207] : reported IC50 = ?
7.09

Entry COc1ccc(-c2ccc(CC[C@](C)(C(=O)NO)S(C)(=O)=O)cc2)cn1 [Example 212] : reported IC50 = ?
0.237

Which IC50 is reported for this molecule? CC(C)(O)CCc1ccc(-c2ccc(CCC(C)(C(=O)NO)S(C)(=O)=O)cc2)cc1 (stereo not drawn) [Example 158]
0.644

====

# Tested on: Acinetobacter baumanii/haemolyticus: Multidrug-resistant clinical isolate (AB-3167)
# protocol-notes: MIC determination (CLSI), AB-3167
# Type: cell-based
# cond: Acinetobacter baumanii/haemolyticus multidrug-resistant clinical isolate AB-3167
experimental-readout: AB-3167 MIC

Here are 6 compounds together with their reported answers.
>>> result("CC(CCc1ccc(-c2ccc(CCO)cc2F)cc1)(C(=O)NO)S(C)(=O)=O (centres unmarked) [Example 155]")
"≧64 mg/L"
>>> result("COc1cccc(-c2ccc(CCC(C)(C(=O)NO)S(C)(=O)=O)cn2)c1F (centres unmarked) [Example 134]")
"≧64 mg/L"
>>> result("CC(=O)c1ccc(-c2ccc(CCC(C)(C(=O)NO)S(C)(=O)=O)c(F)c2)nc1 (centres unmarked) [Example 187]")
"≧64 mg/L"
>>> result("COc1ccc(-c2ccc(CCC(C)(C(=O)NO)S(C)(=O)=O)cc2)cc1C (racemic) [Example 67]")
"≧64 mg/L"
>>> result("CC(CCc1ccc(-c2ccc(C#N)cc2)cn1)(C(=O)NO)S(C)(=O)=O (centres unmarked) [Example 163]")
"≧64 mg/L"
>>> result("CC(CCc1ccc(-c2cccc(Cl)c2Cl)cc1)(C(=O)NO)S(C)(=O)=O (centres unmarked) [Example 59]")
"2 mg/L"

Given CS(=O)(=O)C(CCc1ccc(-c2ccccc2)cc1)C(=O)NO (centres unmarked) [Example 36] , state its recorded AB-3167 MIC.
32 mg/L

For CNS(=O)(=O)c1ccc(-c2ccc(CCC(C)(C(=O)NO)S(C)(=O)=O)cc2)cc1 (racemic) [Example 68] , what is its reported AB-3167 MIC?
≧64 mg/L
